molecular target: C5aR (Homo sapiens, UniProt P21730); construct: U937 cells are a monocytic cell line which express C5aR; experiment: Chemotaxis assay using U937 cells (C5a-induced migration); conditions: chemotaxis (migration) of U937 cells towards C5a; read-out: Mig IC50
Sequence (P21730 whole entry): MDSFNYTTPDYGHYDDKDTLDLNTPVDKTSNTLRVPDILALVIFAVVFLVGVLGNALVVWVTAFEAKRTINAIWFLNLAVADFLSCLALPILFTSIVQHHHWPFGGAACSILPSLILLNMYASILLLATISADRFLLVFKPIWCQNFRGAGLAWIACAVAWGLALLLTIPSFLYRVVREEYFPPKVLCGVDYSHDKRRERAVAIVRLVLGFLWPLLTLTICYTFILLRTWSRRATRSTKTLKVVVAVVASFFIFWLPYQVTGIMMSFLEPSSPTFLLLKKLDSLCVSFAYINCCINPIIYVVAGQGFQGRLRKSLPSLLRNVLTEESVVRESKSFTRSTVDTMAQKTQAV
pIC50: −log10 of the molar value.
measurement-type: pIC50

In plain terms, Cc1cc(-c2c3c(nn2-c2c(C)cccc2C)C(=O)N(c2cc(C(C)(C)C)ccc2C)C3)ccc1C(N)=O has a documented pIC50 of 7.30 to 8.30

Just so you know, measured pIC50 for Cc1ccc(C(C)(C)C)cc1N1Cc2c(nn(-c3c(C)cccc3C)c2-c2ccc(NC(N)=O)cc2)C1=O came out at < 6.30

Per the records, this molecule ( Cc1cccc(C)c1-n1nc2c(c1-c1ccc(C(N)=O)cc1)CN(c1ccc(F)cc1C(C)C)C2 ) has pIC50 equal to 6.30 to 7.30

The reported pIC50 of the molecule CCc1cccc(CC)c1-n1nc2c(c1-c1cc(OC)c(NC(N)=O)cc1F)CN(Cc1ccc(C(F)(F)F)cc1C(F)(F)F)C2(C)C was > 8.30

Lab note: measured pIC50 of Cc1cccc(C)c1-n1nc2c(c1-c1ccc(NC(N)=O)cc1)CN(C(=O)OC(C)(C)C)C2 was < 6.30

The reported pIC50 of the molecule CCc1cccc(CC)c1-n1nc2c(c1-c1cc(F)c(NC(N)=O)cc1C)CN(Cc1ccc(C(F)(F)F)cc1C(F)(F)F)C2(C)C was > 8.30

// recorded pIC50 for Cc1cc(C(N)=O)ccc1-c1c2c(nn1-c1c(C)cccc1C)CN(c1cc(C(C)(C)C)ccc1C)C2 : 6.30 to 7.30

The measured pIC50 associated with Cc1ccc(C(C)(C)C)cc1N1Cc2nn(-c3c(C)cccc3C)c(-c3ccc(NC(N)=O)cc3)c2C1 reads 6.30 to 7.30

Entry Cc1cc(-c2c3c(nn2-c2c(C)cccc2C)CN(c2cc(C(C)(C)C)ccc2C)C3=O)ccc1C(N)=O , pIC50 reported as < 6.30

Measured pIC50, Cc1cccc(C)c1-n1nc2c(c1-c1ccc(C(N)=O)cc1)CN(c1cc(C(C)(C)C)ccn1)C2 : < 6.30

What the record says about Cc1ccc(C(C)(C)C)cc1N1Cc2nn(-c3c(C)cccc3C)c(-c3ccc(C(=O)NC4CCCC4)cc3)c2C1 : pIC50 is < 6.30

Briefly, pIC50 measured for Cc1cccc(C)c1-n1nc2c(c1-c1ccc(NC(N)=O)cc1)CN(c1ccccc1C(C)C)C2 : 6.30 to 7.30

Item: CCCOc1cccc(C)c1-n1nc2c(c1-c1ccc(N)cc1)CN(c1cc(C(C)(C)C)ccc1C)C2 | pIC50: 7.30 to 8.30

Record CCc1cccc(CC)c1-n1nc2c(c1-c1cc(Cl)c(NC(N)=O)cc1F)CN(Cc1ccc(C(F)(F)F)cc1C(F)(F)F)C2(C)C , field pIC50: > 8.30
